Test system: BDF1 mice, P388 leukemia ip, median survival T/C
Test: NCI In Vivo Anticancer Drug Screen. Data for tumor model P388 Leukemia (intraperitoneal) in B6D2F1 (BDF1) mice
Conditions: endpoint: median survival time; dose: 400.0 mg/kg/injection; schedule: Q01DX009 (ip); vehicle: saline with Tween-80; higher = longer survival
Procedure: The antitumor activity of compounds was measured in mice bearing transplantable tumors. Survival or tumor size were measured and the results are expressed as the measurement made in the treated group (T) divided by the measurement made in the vehicle treated control group (C). The tumor model used in this assay is P388 Leukemia (intraperitoneal) in B6D2F1 (BDF1) mice
Inconclusive results and toxic doses are left out. Residues, ends and D or L forms follow the SMILES beside them. *: point of attachment. Bn = c1ccc(C*)cc1; For = O=C*
Measured T/C values are reported for all entries that follow.

compound	T/C
COc1ccc(C(=O)CC(C#N)c2ccc3c(c2)OCO3)cc1OC (configuration not stated)	95 % of control
CC(=O)OCc1cc2ccccc2nc1C	95 % of control
CC(C)CC(NC(=O)C(Cc1ccc(OCc2ccccc2)cc1)NC=O)C(=O)O (configuration not stated) (For-Tyr(Bn)-Leu-OH; configuration not given here)	90 % of control
CSCc1cccc(CO)c1	105 % of control
COc1ccc(N=Cc2ccc3c(c2)OCO3)cc1	98 % of control
COc1ccc2[nH]c3cc(Cl)ccc3c(=O)c2c1	90 % of control
S=c1cc(-c2ccco2)ss1	107 % of control
CCOc1ccc(/C=N/NS(=O)(=O)c2ccccc2)cc1OC	100 % of control
Cc1ccc(CNc2cccnc2)cc1	100 % of control
CCOC(=O)C1CC1Cc1ccccc1 (configuration not stated)	120 % of control
O=C(O)Cn1c(C(F)(F)F)nc2nc(Cl)c(Cl)nc21	100 % of control
COC(=O)C(NC(=O)OCc1ccccc1)C(=O)OC	95 % of control
Cc1ccc(S(=O)(=O)/C=C(/I)c2ccccc2)cc1	100 % of control
COc1ccccc1C1(O)c2ccccc2Sc2cccc(OC)c21 (configuration not stated)	95 % of control
OCC(F)(F)C(F)(F)C(F)(F)F	109 % of control
O=C(O)c1c[nH]n2c(=S)ncnc12	93 % of control
Cc1ccc(C(C#N)Nc2ccccc2)cc1 (configuration not stated)	100 % of control
Cc1c(Cl)cccc1N1C(=O)CC(Sc2ccccc2N)C1=O (configuration not stated)	105 % of control
C1CCCC2(CCC1)OCCO2	109 % of control
COc1cc(/C=N/N2CCCCC2)cc(OC)c1OC	100 % of control
Nc1ccc(OC(=O)Oc2ccc(N)cc2)cc1	104 % of control
CC(=O)OCC(=O)[C@@]1(O)CC[C@H]2[C@@H]3C=C(C)C4=CC(=O)CC[C@]4(C)[C@H]3[C@@H](O)C[C@@]21C	108 % of control

====

System: BDF1 mice, P388 leukemia ip, median survival T/C
Assay: NCI In Vivo Anticancer Drug Screen. Data for tumor model P388 Leukemia (intraperitoneal) in B6D2F1 (BDF1) mice
Conditions: endpoint: median survival time; dose: 200.0 mg/kg/injection; schedule: Q04DX003 (ip); vehicle: saline with Tween-80; higher = longer survival
Toxic doses and inconclusive results are not listed.
measured attribute: T/C

compound	measured attribute	assay value
CC(=O)n1cc(C2CC(=O)OC3=C2C(=O)CCC3)c2ccccc21 (stereo not drawn)	T/C	93 % of control
CC(C)C(Br)C(=O)NCC(=O)NCC(=O)O (stereo not drawn)	T/C	109 % of control
O=C(CC(=O)C(F)(F)F)c1ccc2c(c1)Cc1ccccc1-2	T/C	111 % of control

====

Test system: BDF1 mice, P388 leukemia ip, median survival T/C
Assay: NCI In Vivo Anticancer Drug Screen. Data for tumor model P388 Leukemia (intraperitoneal) in B6D2F1 (BDF1) mice
Settings: endpoint: median survival time; dose: 400.0 mg/kg/injection; schedule: Q04DX003 (ip); vehicle: saline with Tween-80
Description: The antitumor activity of compounds was measured in mice bearing transplantable tumors. Survival or tumor size were measured and the results are expressed as the measurement made in the treated group (T) divided by the measurement made in the vehicle treated control group (C). The tumor model used in this assay is P388 Leukemia (intraperitoneal) in B6D2F1 (BDF1) mice
Inconclusive results and toxic doses are left out. How the source made its calls: active means survival T/C of 150% or more; inactive means T/C below 125% in these data.
Classes used: active, inactive

compound	assigned label
C/C(=C1/c2ccccc2-c2n[nH]c(C)c21)S(=O)(=O)O	inactive
CC(=O)c1nc2c(N)nc(N)nc2nc1C	inactive
CN(Cc1cnc2nc(N)nc(N)c2n1)c1c(Cl)cc(C(=O)NC(CCC(=O)O)C(=O)O)cc1Cl (stereo unspecified)	active
CCSC(=O)CC	inactive
O=C1C(=C(C(F)(F)F)C(F)(F)F)CCc2ccc([N+](=O)[O-])cc21	inactive
CC(=O)N(C(C)=O)c1ccc(N=Nc2ccccc2C)cc1C	inactive
CSc1ncnc2c1ncn2CO	inactive
CCCC(Cc1ccccc1)(C(=O)OCC)C(=O)OCC	inactive
O=[N+]([O-])c1ccc(-n2[nH]nnc2=S)cc1	inactive
CC(=O)N1C(=O)NC(=O)C1(C)c1cccs1 (stereo unspecified)	inactive
C[C@]12CCC(=O)C=C1CC[C@@H]1[C@@H]2[C@@H](O)C[C@@]2(C)[C@H]1CC[C@]2(O)C(=O)COC(=O)c1ccc([N+](=O)[O-])cc1Cl	inactive
COc1ccc(CC(=O)NCCN(CCN(CCO)C(=O)Cc2ccc(OC)cc2)C(=O)Cc2ccc(OC)cc2)cc1	inactive
COC(=O)C(NC(=O)OCc1ccccc1)C(=O)OC	inactive
C#CC(C)OCC1CNC(=S)O1 (stereo unspecified)	inactive
COc1cccc(/C(C)=N\Nc2ccc([N+](=O)[O-])cc2[N+](=O)[O-])c1OC	inactive
N#CC1C=Cc2ccccc2N1C(=O)Oc1ccccc1 (stereo unspecified)	inactive

====

Test system: BDF1 mice, P388 leukemia ip, median survival T/C
Test: NCI In Vivo Anticancer Drug Screen. Data for tumor model P388 Leukemia (intraperitoneal) in B6D2F1 (BDF1) mice
Details: endpoint: median survival time; dose: 6.25 mg/kg/injection; schedule: Q01DX009 (ip); vehicle: saline with Tween-80; higher = longer survival
Toxic doses and inconclusive results are not listed.
Entries and their measured T/C follow.

compound	T/C
CSc1cc(-c2ccc(Cl)cc2)s[s+]1	110 % of control
CC(=O)NC1C([Se][As](C)C)OC(COC(C)=O)C(OC(C)=O)C1OC(C)=O (stereo not given)	116 % of control
NNC(=O)c1ccc(Cl)c(Cl)c1	113 % of control
CSc1nc(NN(C)C)c2[nH]c(C)nc2n1	87 % of control
CCCCN(CCCC)CC(O)c1cc(Cl)cc2cccnc12 (stereo not given)	104 % of control
O=C(C=C(C(F)(F)F)C(F)(F)F)c1ccco1	120 % of control
NC(CSC(c1ccccc1)(c1ccccc1)c1ccc(Br)cc1)C(=O)O (stereo not given)	190 % of control
CCCSc1ncnc2nc(C)[nH]c12	103 % of control
COc1cc2c(cc1OC)C1C(=CCC3c4cc(OC)c(OC)cc4CC[N+]31C)C=C2 (stereo not given)	95 % of control
O=C1CCS(=O)(=O)c2ccccc21	101 % of control

====

Test system: BDF1 mice, P388 leukemia ip, median survival T/C
Assay: NCI In Vivo Anticancer Drug Screen. Data for tumor model P388 Leukemia (intraperitoneal) in B6D2F1 (BDF1) mice
Details: endpoint: median survival time; dose: 25.0 mg/kg/injection; schedule: Q01DX009 (ip); vehicle: saline; higher = longer survival
Toxic doses and inconclusive results are not listed.
Listing of recorded T/C by entry.

smiles data	T/C
O=[N+]([O-])c1ccc(N2CCOCC2)c2c1no[n+]2[O-]	108 % of control
C=CCN(CC=C)CCN(CC)CC	109 % of control
CN(C)CC(C)(C)CO	96 % of control

====

System: BDF1 mice, P388 leukemia ip, median survival T/C
Experiment: NCI In Vivo Anticancer Drug Screen. Data for tumor model P388 Leukemia (intraperitoneal) in B6D2F1 (BDF1) mice
Details: endpoint: median survival time; dose: 100.0 mg/kg/injection; schedule: Q04DX003 (ip); vehicle: saline; higher = longer survival
Toxic doses and inconclusive results are not listed.

compound	T/C
CCN(CC)C(=O)Cn1cc(F)c(N)nc1=O	110 % of control
CCN(CC)C(=O)c1ccncc1	109 % of control
CN1CCC=C(C(=O)N(c2ccccc2)c2ccccc2)C1	100 % of control
BrC1C2CC(c3ccccc32)C1Br (centres undefined)	100 % of control
O=C1c2ccccc2C(=O)N1CNc1cccc(NCN2C(=O)c3ccccc3C2=O)c1	104 % of control
Nc1ccccc1CCCC(=O)O	100 % of control
NS(=O)(=O)c1ccc(N=Nc2nc3ncnc(SCc4cccs4)c3[nH]2)cc1	104 % of control
CC(C)CN1CCOCC1	95 % of control
O=C(O)C1CCSS1 (centres undefined)	101 % of control
CCOC(=O)CCC1(CCC(=O)OCC)OCCO1	95 % of control
CC(C)SC=O	109 % of control
CCOC(=O)C1CC1C(=O)O (centres undefined)	103 % of control
COC(C)C(Br)C(=O)O (centres undefined)	100 % of control
CC(C(=O)c1ccc(Br)cc1)C(Br)c1ccccc1 (centres undefined)	88 % of control
